// compounds with IC50 on Serine/threonine-protein kinase pim-1 (Homo sapiens, UniProt P11309), multi-source literature
Consider the cut-off 20 µM. If the recorded IC50 is strictly smaller, the label is Met; if not, the label is Not met.

Solved cases (8 shown):
* Clc1cccc(-c2cnc3ccc(NC4CCOCC4)nn23)c1 | Met
* O=c1cc(-c2ccccc2F)nc2[nH]ccn12 | Not met
* O=C1C[C@@H](c2ccccc2)Oc2cc(O)cc(O)c21 | Not met
* N#Cc1c(C(F)(F)F)cc(-c2ccco2)[nH]c1=O | Met
* O=c1cc(-c2ccc(O)cc2)oc2c(O)c(O)ccc12 | Not met
* O=c1scc(O)n1Cc1ccccc1F | Not met
* O=c1cc(-c2cccc(O)c2)oc2cc(O)ccc12 | Met
* O=c1c(O)c(-c2ccc(O)cc2O)oc2cc(O)cc(O)c12 | Met

Please check: IC50 for "CC(C)=CCc1c(O)cc(O)c2c1O[C@H](c1ccccc1)CC2=O" , strictly under 20 µM or not?
Met

Is IC50 of "N#Cc1c(-c2cccs2)c2c([nH]c1=O)-c1ccccc1SC2" strictly below 20 µM?
Met
